Value source: paper PMC12040969

Kindly supply the reported Average of Relative viability of cells (%) values for the records listed here.
Tested on: colon - HCT-116
Assay: Antiproliferative assay (MTT) HCT-116
Settings: HCT-116, 6.25 µM
Numbers only, in %.

{"COMPOUND": "Cc1nc(SCC(=O)Nc2nccs2)sc1C(=O)/C=C/c1ccc(F)cc1 [Compound 13c]", "REPORTED_RESULT": 73.1}
{"COMPOUND": "Cc1ccc(-c2csc(NC(=O)CSc3nc(C)c(C(=O)/C=C/c4ccc(F)cc4)s3)n2)cc1 [Compound 10m]", "REPORTED_RESULT": 87.4}
{"COMPOUND": "Cc1ccc(/C=C/C(=O)c2sc(SCC(=O)Nc3nccs3)nc2C)cc1 [Compound 13d]", "REPORTED_RESULT": 63.9}
{"COMPOUND": "Cc1ccc(/C=C/C(=O)c2sc(SCC(=O)Nc3nc(-c4ccccc4)cs3)nc2C)cc1 [Compound 10d]", "REPORTED_RESULT": 73.6}
{"COMPOUND": "Cc1nc(SCC(=O)Nc2nc(-c3ccc(Cl)cc3)cs2)sc1C(=O)/C=C/c1ccc(F)cc1 [Compound 10h]", "REPORTED_RESULT": 79.5}
{"COMPOUND": "COc1ccc(/C=C/C(=O)c2sc(SCC(=O)Nc3nc(-c4ccc(C)cc4)cs3)nc2C)cc1 [Compound 10o]", "REPORTED_RESULT": 51.6}
{"COMPOUND": "Cc1nc(SCC(=O)Nc2nc(-c3ccc(Cl)cc3)cs2)sc1C(=O)/C=C/c1ccccc1 [Compound 10f]", "REPORTED_RESULT": 71.1}

# input Retrieve Average of Relative viability of cells (%) measured for Cc1nc(SCC(=O)Nc2nccs2)sc1C(=O)/C=C/c1ccc(Cl)cc1 [Compound 13b] and print it.
# output 73.3

----------
Kindly supply the reported Average of Relative viability of cells (%) values for the records listed here.
Test system: prostatic - PC-3
Test: Antiproliferative assay (MTT) PC-3
Details: PC-3, 1.56 µM
Give bare numbers, in %.

Observe how each entry below is paired with its result.
{"COMPOUND": "Cc1ccc(/C=C/C(=O)c2sc(SCC(=O)Nc3nc(-c4ccccc4)cs3)nc2C)cc1 [Compound 10d]", "REPORTED_RESULT": 100}
{"COMPOUND": "Cc1nc(SCC(=O)Nc2nccs2)sc1C(=O)/C=C/c1ccc(Cl)cc1 [Compound 13b]", "REPORTED_RESULT": 100}
{"COMPOUND": "COc1ccc(/C=C/C(=O)c2sc(SCC(=O)Nc3nc(-c4ccc(C)cc4)cs3)nc2C)cc1 [Compound 10o]", "REPORTED_RESULT": 99.3}
{"COMPOUND": "Cc1nc(SCC(=O)Nc2nccs2)sc1C(=O)/C=C/c1ccc(F)cc1 [Compound 13c]", "REPORTED_RESULT": 100}
{"COMPOUND": "Cc1nc(SCC(=O)Nc2nc(-c3ccc(Cl)cc3)cs2)sc1C(=O)/C=C/c1ccccc1 [Compound 10f]", "REPORTED_RESULT": 100}
{"COMPOUND": "Cc1ccc(/C=C/C(=O)c2sc(SCC(=O)Nc3nccs3)nc2C)cc1 [Compound 13d]", "REPORTED_RESULT": 97.1}
{"COMPOUND": "Cc1ccc(-c2csc(NC(=O)CSc3nc(C)c(C(=O)/C=C/c4ccc(F)cc4)s3)n2)cc1 [Compound 10m]", "REPORTED_RESULT": 100}

Read the next record carefully.
# input Retrieve Average of Relative viability of cells (%) measured for Cc1nc(SCC(=O)Nc2nc(-c3ccc(Cl)cc3)cs2)sc1C(=O)/C=C/c1ccc(F)cc1 [Compound 10h] and print it.
# output 100
